Attribute: composite z-score
- assayComment: small-molecule microarray binders of probe aNog, primary screen, biochemical, biotinylated probe, 635/667 nm fluorescence (AID 1115);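 note: probe is biotinylated aNog protein used at 0.15 µg/mL for 1 h at 4 C; z-score combines 667 nm fluorescence of each spot with its signal to noise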
- statedConditions: higher = more signal
recordedEndpoint: composite z-score

INSERT INTO results (compound, numericreadout) VALUES
  ('O=C1O[C@@H](c2ccccc2)[C@@H](c2ccccc2)N2[C@@H](c3ccc(OCCO)cc3)[C@]3(C(=O)Nc4ccc(C#CCCO)cc43)[C@@H](C(=O)N3CCCCCCC3)[C@H]12', 2.81),
  ('O=C1[C@H]2[C@H]3[C@H](O)[C@H](O)CC(=NOCc4ccccc4)[C@H]3CC[C@H]2C(=O)N1c1ccc(F)cc1F', -0.47),
  ('CCc1cc2c(nc1CC)CCN(CCC(C)=NO[C@@H](C)c1cc(-c3c(C)cc(C)cc3C)no1)C2', 0.0014),
  ('O=C1[C@H]2[C@H]3[C@H](O)[C@H](O)CC(=NO[C@@H]4O[C@H](CO)[C@@H](O)[C@H](O)[C@H]4O)[C@@H]3CC[C@H]2C(=O)N1Cc1ccccc1', -0.433),
  ('COC(=O)c1c(CC[C@@H](CO)NC(=O)N[C@H](Cc2ccccc2)Cn2cc(-c3ccccc3N)nn2)oc(C(C)=O)c1C(=O)OC', 1.12),
  ('C[C@H]1CC[C@@H](C(=O)O)N[C@@H]1c1ccc(C#CCN(C)C)cc1', -0.126),
  ('CC(CCN1CCCCc2nc(C)c(C)cc21)=NOC(C)CN1CCCc2nc(C)c(C)cc21 (centres undefined)', 0.578),
  ('COCCOC(=O)N1C(=O)[C@@]2(c3cc(C#CC4(O)CCCCCC4)ccc31)[C@H](c1ccc(OCCO)cc1)N1[C@H](c3ccccc3)[C@H](c3ccccc3)OC(=O)[C@H]1[C@@H]2C(=O)NC[C@H](O)c1ccccc1', 0.385),
  ('CO[C@@H]1COC(=O)CC=C[C@@H](C)[C@@H]2C=C[C@H](O)[C@@H](COC(=O)[C@H](C)NC(=O)CC=C[C@H]1C)O2', -0.466),
  ('COC(=O)CC=C[C@H](C)[C@H](CO)NS(=O)(=O)c1ccc(C)cc1', -0.0094),
  ('O=C1c2ccccc2[C@@]2(Cc3ccccc3N(C3CC3)C2=O)[C@H](c2ccc(CO)cc2)N1Cc1ccccc1C(F)(F)F', -0.23),
  ('CC(=O)OC[C@H]1O[C@@H](ON=C(C)CCN2CCc3nc(-c4ccccc4)c(-c4ccccc4)cc3C2)[C@H](OC(C)=O)[C@@H](OC(C)=O)[C@@H]1OC(C)=O', -0.295),
  ('COc1ccc(O[C@H]2C=C[C@@H](c3ccccc3)O[C@@H]2COC(=O)CCC(C)=NO[C@H](C)c2cn([C@@H]3COC[C@H]3O)nn2)cc1', -0.185),
  ('CC(C)(C)OC(=O)CC[C@]1(C(=O)NCc2ccccc2)N=C(c2ccc(OCCCO)cc2)O[C@H]1c1ccccc1', -0.198);
